Tested on: NCI-H23 lung
Experiment Description: NCI tumour cell line growth inhibition, 48 h; in the data active = GI50 below about 0.43 µM; inactive = the rest
# output must be one of 1.0 = active, 0.0 = inactive

{"columns": ["Compound", "System Name", "Label Class"],
 "data": [
  ["O=C1NC(=O)C(N2C(=O)c3ccccc3C2=O)CC1O (stereo not drawn)", "NCI-H23 lung", 0.0]
]}

--- query ---
Identify the outcome logged in this assay for the compound shown: `Cc1cc(S(=O)(=O)/N=C(/N)Nc2ccccc2O)c(SCc2ccccc2)cc1Cl`
0.0

* * *

Tested on: SF-539 CNS
Experiment Description: NCI tumour cell line growth inhibition, 48 h
Reported Endpoint: TGI (µM)
Express your answer in µM, writing the number without its unit.

{"columns": ["Compound", "System Name", "Recorded Number"],
 "data": [
  ["CCOC(=O)C1=C(C)N(c2ccc(Cl)cc2)[C@]2(C#N)C(O)=C(Cl)C(Cl)=C(O)[C@]12C#N", "SF-539 CNS", 96.8],
  ["O=C1c2ccccc2-c2cc([N+](=O)[O-])c([N+](=O)[O-])cc21", "SF-539 CNS", 1.03],
  ["CN(C)CCCN1c2ccccc2Sc2ccc3ccccc3c21", "SF-539 CNS", 30.9],
  ["CC1=C2[C@@H](CC1)[C@]1(C)O[C@@](c3ccccc3)(C[C@H]1OC(=O)CO)[C@H]2OC(=O)/C=C/c1ccccc1", "SF-539 CNS", 35.8],
  ["O=C(Nc1ccc(OCc2nnc(-c3ccc(Cl)cc3)o2)c(F)c1)Nc1ccc(Cl)c(C(F)(F)F)c1", "SF-539 CNS", 4.34]
]}

Recorded TGI of OCc1ccc(N2CCCC2c2ccccc2)cc1Cl (stereo unspecified) , please.
21.8

Recorded TGI of `O=C(OCc1ccc2ccccc2n1)c1cn(C2CC2)c2cc(N3CCN(Cc4ccc5ccccc5n4)CC3)c(F)cc2c1=O` , please.
58

Recorded TGI of `O=C(CCl)NNC1=Nc2ccc(Cl)cc2SC1` , please.
3.77

Recorded TGI of O=C1OCC2=C1C(c1ccc(Cl)c(Cl)c1)c1cc3c(cc1N2CCO)OCCO3 (stereo unspecified) , please.
1.74

* * *

System: DU-145 prostate
Experiment Description: NCI tumour cell line growth inhibition, 48 h
Collected GI50 values appear next to each entry.

Below: 4 compounds and their reported GI50.
{"columns": ["Compound", "Reported Endpoint", "Result"],
 "data": [
  ["COc1cccc(OC(=O)c2ccc(C(F)(F)F)nc2Nc2cc(Cl)ccc2C)c1", "GI50", "9.01 µM"],
  ["CC(=O)OC12C=C(C)C(C(C)C1)C1C(=O)N(CCN3CCOCC3)C(=O)C12 (stereo not given)", "GI50", "> 100 µM"],
  ["CN=c1ccc2nc3ccc(N)cc3sc-2c1", "GI50", "10.7 µM"],
  ["O=C(O)CN1CCN(CC(=O)O)CC(=O)[O][Hg][O]C(=O)C1", "GI50", "27.8 µM"]
]}

# input for lookup
For DU-145 prostate, provide GI50 of `O=C1/C(=C/c2ccccc2[N+](=O)[O-])Cc2ccccc21` please.
1.86 µM

* * *

Test system: CCRF-CEM leukemia
Experiment Description: NCI tumour cell line growth inhibition, 48 h
Reported Endpoint: TGI (µM)
Express your answer in µM, writing the number without its unit.

{"columns": ["Molecule", "System Name", "Result Units", "Recorded Number"],
 "data": [
  ["CCOC(=O)C1=C(C)N(c2ccc(Cl)cc2)[C@]2(C#N)C(O)=C(Cl)C(Cl)=C(O)[C@]12C#N", "CCRF-CEM leukemia", "µM", 75.9]
]}

Recorded TGI of CS(=O)(=O)OCC1CN(S(C)(=O)=O)c2cc(O)ccc21 (stereo not given) , please.
5.76

* * *

Collected TGI values appear next to each entry.
Test system: HCT-116 colon
Experiment Description: NCI tumour cell line growth inhibition, 48 h

{"columns": ["Molecule", "System Name", "TGI"],
 "data": [
  ["CCCCCCCCCCCCCCCCCC[n+]1ccc2c(C)c3c(c(C)c2c1)c1cc(O)ccc1n3CC", "HCT-116 colon", "12.7 µM"],
  ["CCCc1c(-c2ccccc2)[nH]c2ccccc2c1=O", "HCT-116 colon", "72.8 µM"]
]}

For HCT-116 colon, provide TGI of `O=C1CCCN1C(=O)CS(=O)(=O)c1ccccc1` please.
> 100 µM

For HCT-116 colon, provide TGI of `c1cnn2ncc(-c3ccnc(NCCCN4CCOCC4)n3)c2c1` please.
> 25 µM

For HCT-116 colon, provide TGI of `COc1cc2c3c(c1)CCCN3CCC2` please.
> 10 µM

For HCT-116 colon, provide TGI of COc1cc(C2SCC(=O)N2c2cccc(Cl)c2)cc(OC)c1OC (stereo unspecified) please.
> 100 µM

* * *

Tested on: NCI-H226 lung
Experiment Description: NCI tumour cell line growth inhibition, 48 h
Collected TGI values appear next to each entry.

Below: 8 compounds and their reported TGI.
{"columns": ["Compound", "TGI"],
 "data": [
  ["Cc1cc(S(=O)(=O)Nc2nc3ccccc3nc2-c2cccc([N+](=O)[O-])c2)c(S)cc1Cl", "44.5 µM"],
  ["CC1=NN(C(=O)c2ccncc2)C(=O)C1", "> 100 µM"],
  ["CN(C)CCCN1c2ccccc2Sc2ccc3ccccc3c21", "19 µM"],
  ["COC1=CC(=O)C2=C(C1=O)[C@H]1CC[C@]3(C)[C@@H](O)CC[C@H]3[C@@H]1CC2", "31.5 µM"],
  ["CO/C(=N\\N=C\\c1ccc(OC)c(OC)c1)c1ccncc1", "> 10 µM"],
  ["CN[C@@H](C)C(=O)N[C@H](C(=O)N1CCC[C@H]1C(=O)Nc1sc(-c2ncco2)nc1-c1ccccc1)C1CCCCC1", "> 100 µM"],
  ["COc1ccc(-c2cc(-c3ccc(C)cc3)nc3nc(=S)[nH]c(N)c23)cc1", "41.7 µM"],
  ["Cc1c(/C=N/N=C/c2[nH]c(C(=O)OC(C)(C)C)c(C)c2C)[nH]c(C(=O)OC(C)(C)C)c1C", "> 100 µM"]
]}

Recorded TGI of NC(CSC1c2ccccc2-c2ccccc21)C(=O)O (centres undefined) , please.
> 100 µM

Recorded TGI of `O=C(CCl)NNC1=Nc2ccc(Cl)cc2SC1` , please.
6.16 µM

Recorded TGI of CN(C)c1ccc(C(Cc2ccccc2)C2NC(=S)NC2=O)cc1 (centres undefined) , please.
> 100 µM

Recorded TGI of CC(=O)NC(CCCNC(=O)N(CCCl)N=O)C(=O)NCc1ccccc1 (centres undefined) , please.
> 100 µM

Recorded TGI of OCc1ccc(N2CCCC2c2ccccc2)cc1Cl (centres undefined) , please.
0.325 µM

Recorded TGI of Cc1ccc(C2OC(COCc3ccc(Cl)cc3)C(OCc3ccc(Cl)cc3)C2O)cc1 (centres undefined) , please.
38.5 µM

Recorded TGI of `C[C@@H]1CN(Cc2ccc(F)cc2)[C@@H](C)CN1C(=O)c1cc2c(C(=O)C(=O)N(C)C)cn(C)c2cc1Cl` , please.
31.1 µM

Recorded TGI of `COC(=O)[C@H](CCSC)NC(=O)N[C@H](C)c1ccccc1` , please.
> 100 µM

* * *

System: HCC-2998 colon
Experiment Description: NCI tumour cell line growth inhibition, 48 h
Collected log10 of TGI values appear next to each entry.
Parameter value (number): base-10 log of TGI in µM.

Below: 4 compounds and their reported log10 of TGI.
{"columns": ["Compound", "System Name", "log10 of TGI"],
 "data": [
  ["N#CC1(C(N)=O)C(c2ccc(Cl)cc2)CC(=O)CC1c1ccc(Cl)cc1 (stereo not drawn)", "HCC-2998 colon", 1.48],
  ["CCOC(=O)c1c(C)nc2c1c(CN(C)C)c(O)c1[nH]c(C)c(C)nc12", "HCC-2998 colon", 1.71],
  ["COC1/C=C/C(C)C(C(C)C(OC)C(C)CCC(=O)C(C)C(C/C=C/N(C)C=O)OC)OC(=O)C=CC2OC2(C)CC(OC)C(OC)C2=CC(=O)O[C@@H](C(C)C(OC)CC(OC)/C=C/C(C)C(O)C1)[C@H]2O (stereo partly drawn)", "HCC-2998 colon", -1.23],
  ["COc1cc2c3c(n(C)c(=O)c2cc1OC)-c1cc2c(cc1/C3=C\\CCCCN1C(=O)c3ccccc3C1=O)OCO2", "HCC-2998 colon", 1.77]
]}

# input for lookup
For HCC-2998 colon, provide log10 of TGI of `CCOc1ccccc1C(=O)N1CCN(c2cc(Cl)cc(Cl)c2)CC1` please.
1.03

* * *

System: SK-OV-3 ovarian
Experiment Description: NCI tumour cell line growth inhibition, 48 h
Collected TGI values appear next to each entry.

{"columns": ["Compound", "System Name", "TGI"],
 "data": [
  ["CCN(CC)CC1c2ccccc2C(CNc2ccccc2)N1C (stereo not drawn)", "SK-OV-3 ovarian", "> 100 µM"]
]}

For SK-OV-3 ovarian, provide TGI of `O=C1c2c(c3c4ccccc4[nH]c3c3ccc4ccccc4c23)C(=O)N1CCN1CCNCC1` please.
3.58 µM

For SK-OV-3 ovarian, provide TGI of C1CCC([PH+](C2CCCCC2)C2CCCCC2[PH+](C2CCCCC2)C2CCCCC2)CC1.[Au].[CH-]1CCCCC1CC1CCCC[N-]1 (stereo not drawn) please.
1.36 µM
